Data origin: patent US6906033

molecular target: Plasmin; test: enzyme inhibition
property: Ki
Please give the number followed by its unit.

response.value for TW6185 (peptide) EVVREVCSEQAETGPCRAMHWRWYFDVTEGKCAPFFYGGCGGNRNNFDTEEYCMAVCGSAI (field: Ki) = 18.6 nM
